assay: in vivo; settings: female, athymic nude, mouse, kidneys, iv, uptake Kidneys 3 h, ^68Ga-labeled; PET/CT; 3 h post tracer injection
Numbered stars: 1 amine (or outer) side, 2 acyl side, 3 side chain; on linkers, the order of the positions; unused ones are H or OH. Bridge positions count the residues as written; N and C are the ends. Square brackets hold non-standard residues; d marks the D form. Peptide text beside a SMILES is read from it. * marks the point of attachment. ξ: configuration not given here. X7 = O=C(CCP(=O)(O)CN1CCN(CP(=O)(O)CO)CCN(CP(=O)(O)CO)CC1)NCCSCc1cc(C[*:1])cc(C[*:2])c1; X11 = O=C(O)CN1CCN(CC(=O)O)CCN(C(CCC(=O)NCCSCc2cc(C[*:1])cc(C[*:2])c2)C(=O)O)CC1; CO = O=C([*:1])[*:2]; ξC = NC(CS)C(=O)O; NHBu = CCCCN*
tissue uptake at 3 h values by entry

| molecule | tissue uptake at 3 h [%ID/g] |
| --- | --- |
| CCCCNC(=O)N[C@H]1CSCc2cc(CSCCNC(=O)CCC(C(=O)O)N3CCN(CC(=O)O)CCN(CC(=O)O)CC3)cc(c2)CSCC(C(=O)O)NC(=O)[C@H](Cc2ccccc2)NC(=O)[C@H](CCC(=O)O)NC(=O)[C@H]([C@@H](C)O)NC(=O)[C@@H]2CCCN2C(=O)[C@@H]2CCCN2C1=O (stereo partly drawn) [3BP-4724] ({NHBu-CO}-CPPTEF[ξC]-OH; linker 1-7 via X11) | 0.86 |
| CCCCNC(=O)N[C@H]1CSCc2cc(CSCCNC(=O)CCP(=O)(O)CN3CCN(CP(=O)(O)CO)CCN(CP(=O)(O)CO)CC3)cc(c2)CSCC(C(=O)O)NC(=O)[C@H](Cc2ccccc2)NC(=O)[C@H](CCC(=O)O)NC(=O)[C@H]([C@@H](C)O)NC(=O)[C@@H]2CCCN2C(=O)[C@@H]2CCCN2C1=O (stereo partly drawn) [3BP-4778] ({NHBu-CO}-CPPTEF[ξC]-OH; linker 1-7 via X7) | 1 |
| CCCCNC(=O)N[C@H]1CSCc2cc(CSCCNC(=O)CCP(=O)(O)CN3CCN(CP(=O)(O)CO)CCN(CP(=O)(O)CO)CC3)cc(c2)CSCC(C(=O)O)NC(=O)[C@H](Cc2ccccc2)NC(=O)[C@H](CCC(N)=O)NC(=O)[C@H]([C@@H](C)O)NC(=O)[C@@H]2CCCN2C(=O)[C@@H]2CCCN2C1=O (stereo partly drawn) | 0.67 |

---

Here's a batch of compounds along with measured pIC50 for FAP-expressing human WI-38 fibroblasts (Homo sapiens, UniProt Q12884).
pIC50: −log10 of the molar value. Numbered stars: 1 amine (or outer) side, 2 acyl side, 3 side chain; on linkers, the order of the positions; unused ones are H or OH. Bridge positions count the residues as written; N and C are the ends. Square brackets hold non-standard residues; d marks the D form. Peptide text beside a SMILES is read from it. mXylylene = c1cc(C[*:1])cc(C[*:2])c1; Aib = CC(C)(N)C(=O)O
measurement-name: pIC50

| compound | measurement-name | result |
| --- | --- | --- |
| CSCC[C@H](NC(C)=O)C(=O)N[C@H]1CSCc2cccc(c2)CSC[C@@H](C(=O)N[C@@H](CC(=O)O)C(=O)N[C@@H](Cc2c[nH]cn2)C(=O)N[C@@H](Cc2ccccc2)C(=O)N[C@@H](CCCNC(=N)N)C(=O)N[C@@H](CC(=O)O)C(N)=O)NC(=O)[C@H](Cc2ccccc2)NC(=O)[C@H](CCC(=O)O)NC(=O)[C@H]([C@@H](C)O)NC(=O)[C@@H]2CCCN2C(=O)C(C)(C)NC1=O [3BP-3204] (Ac-MC[Aib]PTEFCDHFRD-NH2; linker 2-8 via mXylylene) | pIC50 | 7.10 to 8.00 |
| CCCC[C@H](NC(=O)CCC(=O)NCCCOCCOCCOCCCNC(=O)[C@H](CCC(=O)NC[C@H](O)[C@@H](O)[C@H](O)[C@H](O)CO)NC(=O)[C@H](CCC(=O)NC[C@H](O)[C@@H](O)[C@H](O)[C@H](O)CO)NC(=O)C(CNCCN)CNCCN)C(=O)N[C@H]1CSCc2cccc(c2)CSC[C@@H](C(=O)O)NC(=O)[C@H](Cc2ccccc2)NC(=O)[C@H](CCC(N)=O)NC(=O)[C@H]([C@@H](C)O)NC(=O)[C@@H]2CCCN2C(=O)[C@@H]2CCCN2C1=O | pIC50 | 6.10 to 7.00 |
| C[C@@H](O)[C@@H]1NC(=O)[C@@H]2CCCN2C(=O)[C@@H]2CCCN2C(=O)[C@@H](NC(=O)C2CCOC2)CSCc2cc(CSCCNC(=O)CN3CCN(CC(=O)O)CCN(CC(=O)O)CCN(CC(=O)O)CC3)cc(c2)CSC[C@@H](C(=O)O)NC(=O)[C@H](Cc2ccccc2)NC(=O)[C@H](CCC(N)=O)NC1=O (stereo partly drawn) | pIC50 | 6.10 to 7.00 |

---

target: Human recombinant FAP (Homo sapiens, UniProt Q12884); assay: FRET-based FAP protease activity assay; assay type: biochemical; parameters: purchased R&D systems 3715-SE; conditions: pIC50 Category (activity), Recombinant human FAP
Sequence (Q12884 whole entry): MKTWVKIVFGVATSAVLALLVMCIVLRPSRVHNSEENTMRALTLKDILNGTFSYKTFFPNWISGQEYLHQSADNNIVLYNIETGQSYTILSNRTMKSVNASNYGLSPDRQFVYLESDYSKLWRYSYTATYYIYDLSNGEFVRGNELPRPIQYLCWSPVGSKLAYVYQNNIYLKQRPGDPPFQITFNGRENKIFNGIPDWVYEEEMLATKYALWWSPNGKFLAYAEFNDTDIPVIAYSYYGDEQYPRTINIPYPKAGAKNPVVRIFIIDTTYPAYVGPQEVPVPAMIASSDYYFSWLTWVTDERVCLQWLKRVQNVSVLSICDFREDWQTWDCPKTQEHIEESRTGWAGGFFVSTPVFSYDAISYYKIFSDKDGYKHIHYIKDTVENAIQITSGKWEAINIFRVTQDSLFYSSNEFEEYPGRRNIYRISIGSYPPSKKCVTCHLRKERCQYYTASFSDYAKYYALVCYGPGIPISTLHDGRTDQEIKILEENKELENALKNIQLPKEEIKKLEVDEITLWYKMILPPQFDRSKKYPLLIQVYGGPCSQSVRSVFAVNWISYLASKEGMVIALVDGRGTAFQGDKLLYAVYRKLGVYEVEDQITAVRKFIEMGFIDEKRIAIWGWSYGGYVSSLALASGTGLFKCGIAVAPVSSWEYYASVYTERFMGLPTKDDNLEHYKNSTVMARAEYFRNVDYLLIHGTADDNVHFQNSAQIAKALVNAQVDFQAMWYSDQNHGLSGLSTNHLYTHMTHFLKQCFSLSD
Numbered stars: 1 amine (or outer) side, 2 acyl side, 3 side chain; on linkers, the order of the positions; unused ones are H or OH. Bridge positions count the residues as written; N and C are the ends. Square brackets hold non-standard residues; d marks the D form. Peptide text beside a SMILES is read from it. * marks the point of attachment. ξ: configuration not given here. X7 = O=C(CCP(=O)(O)CN1CCN(CP(=O)(O)CO)CCN(CP(=O)(O)CO)CC1)NCCSCc1cc(C[*:1])cc(C[*:2])c1; X11 = O=C(O)CN1CCN(CC(=O)O)CCN(C(CCC(=O)NCCSCc2cc(C[*:1])cc(C[*:2])c2)C(=O)O)CC1; X1 = NCCNCC(CNCCN)C(=O)N1CCN(CC(=O)NCCCOCCOCCOCCCN*)CC1; Pyridine(3,5-bisCH2) = c1ncc(C[*:2])cc1C[*:1]; mXylylene = c1cc(C[*:1])cc(C[*:2])c1; Suc = O=C(CCC(=O)[*:2])[*:1]; Nle = CCCC[C@H](N)C(=O)O; Hexanoyl = CCCCCC(=O)*; CO = O=C([*:1])[*:2]; ξC = NC(CS)C(=O)O; NHBu = CCCCN*
IC50 values by entry

| compound | IC50 |
| --- | --- |
| CCCC[C@H](NC(=O)CCC(=O)NCCCOCCOCCOCCCNC(=O)CN1CCN(C(=O)C(CNCCN)CNCCN)CC1)C(=O)N[C@H]1CSCc2cccc(c2)CSC[C@@H](C(=O)O)NC(=O)[C@H](Cc2ccccc2)NC(=O)[C@H](CCC(=O)O)NC(=O)[C@H]([C@@H](C)O)NC(=O)[C@@H]2CCCN2C(=O)[C@@H]2CCCN2C1=O [3BP-4782] ({X1-Suc}-[Nle]CPPTEFC-OH; linker 2-8 via mXylylene) | 10 to 79.4 nM |
| CCCCCC(=O)N[C@H]1CSCc2cc(CSCCNC(=O)COc3ccc4nc3CN(CC(=O)O)CCN(CC(=O)O)CCN(CC(=O)O)C4)cc(c2)CSCC(C(=O)O)NC(=O)[C@H](Cc2ccccc2)NC(=O)[C@H](CCC(N)=O)NC(=O)[C@H]([C@@H](C)O)NC(=O)[C@@H]2CCCN2C(=O)[C@@H]2CCCN2C1=O (stereo partly shown) | < 10 nM |
| CCCCNC(=O)N[C@H]1CSCc2cc(CSCCNC(=O)CCC(C(=O)O)N3CCN(CC(=O)O)CCN(CC(=O)O)CC3)cc(c2)CSCC(C(=O)O)NC(=O)[C@H](Cc2ccccc2)NC(=O)[C@H](CCC(=O)O)NC(=O)[C@H]([C@@H](C)O)NC(=O)[C@@H]2CCCN2C(=O)[C@@H]2CCCN2C1=O (stereo partly shown) [3BP-4724] ({NHBu-CO}-CPPTEF[ξC]-OH; linker 1-7 via X11) | 10 to 79.4 nM |
| CCCC[C@H](NC(=O)CCC(=O)NCCCOCCOCCOCCCNC(=O)C(CNCCN)CNCCN)C(=O)N[C@H]1CSCc2cncc(c2)CSCC(C(=O)O)NC(=O)[C@H](Cc2ccccc2)NC(=O)[C@H](CCC(N)=O)NC(=O)[C@H]([C@@H](C)O)NC(=O)[C@@H]2CCCN2C(=O)[C@@H]2CCCN2C1=O (stereo partly shown) | < 10 nM |
| CCCC[C@H](NC(=O)CCOCCOCCOCCOCCOCCOCCNC(=O)C(CNCCN)CNCCN)C(=O)N[C@H]1CSCc2cccc(c2)CSCC(C(=O)O)NC(=O)[C@H](Cc2ccccc2)NC(=O)[C@H](CCC(N)=O)NC(=O)[C@H]([C@@H](C)O)NC(=O)[C@@H]2CCCN2C(=O)[C@@H]2CCCN2C1=O (stereo partly shown) | 10 to 79.4 nM |
| CCCCCC(=O)N[C@H]1CSCc2cc(CSCCNC(=O)CCP(=O)(O)CN3CCN(CP(=O)(O)CO)CCN(CP(=O)(O)CO)CC3)cc(c2)CSCC(C(=O)O)NC(=O)[C@H](Cc2ccccc2)NC(=O)[C@H](CCC(=O)O)NC(=O)[C@H]([C@@H](C)O)NC(=O)[C@@H]2CCCN2C(=O)[C@@H]2CCCN2C1=O (stereo partly shown) [3BP-4818] (Hexanoyl-CPPTEF[ξC]-OH; linker 1-7 via X7) | 10 to 79.4 nM |
| CCCC[C@H](NC(=O)CCOCCOCCOCCOCCOCCOCCNC(=O)C(CNCCN)CNCCN)C(=O)N[C@H]1CSCc2cncc(c2)CSCC(C(=O)O)NC(=O)[C@H](Cc2ccccc2)NC(=O)[C@H](CCC(N)=O)NC(=O)[C@H]([C@@H](C)O)NC(=O)[C@@H]2CCCN2C(=O)[C@@H]2CCCN2C1=O (stereo partly shown) | 10 to 79.4 nM |
| CCCCCC(=O)N[C@H]1CSCc2cc(CSCCNC(=O)CCC(=O)NCCCOCCOCCOCCCNC(=O)CCCCC3(N(C)CC(=O)O)CN(CC(=O)O)CCN(CC(=O)O)C3)cc(c2)CSC[C@@H](C(=O)O)NC(=O)[C@H](Cc2ccccc2)NC(=O)[C@H](CCC(N)=O)NC(=O)[C@H]([C@@H](C)O)NC(=O)[C@@H]2CCCN2C(=O)[C@@H]2CCCN2C1=O | 10 to 79.4 nM |
| CCCC[C@H](NC(=O)CCC(=O)NCCCOCCOCCOCCCNC(=O)CN1CCN(C(=O)C(CNCCN)CNCCN)CC1)C(=O)N[C@H]1CSCc2cncc(c2)CSCC(C(=O)O)NC(=O)[C@H](Cc2ccccc2)NC(=O)[C@H](CCC(=O)O)NC(=O)[C@H]([C@@H](C)O)NC(=O)[C@@H]2CCCN2C(=O)[C@@H]2CCCN2C1=O (stereo partly shown) [3BP-4775] ({X1-Suc}-[Nle]CPPTEF[ξC]-OH; linker 2-8 via Pyridine(3,5-bisCH2)) | 10 to 79.4 nM |
| CCCC[C@H](NC(=O)CCC(=O)NCCCOCCOCCOCCCNC(=O)CN1CCN(C(=O)C(CNCCN)CNCCN)CC1)C(=O)N[C@H]1CSCc2cccc(c2)CSC[C@@H](C(=O)NCCC(=O)O)NC(=O)[C@H](Cc2ccccc2)NC(=O)[C@H](CCC(N)=O)NC(=O)[C@H]([C@@H](C)O)NC(=O)[C@@H]2CCCN2C(=O)[C@@H]2CCCN2C1=O | < 10 nM |
